Exercise: state measured viability at 28.5 h, 10 µM for each of the compounds provided.
# test.details: in vitro
# experimental.context: human, hela cells, % viability
Answers are plain numbers, in %.

[
  {
    "compound": "Cc1nn(C)cc1C(C)NC(=O)c1ccc(CN(C)C)o1 (stereo not drawn) [CBK282083]",
    "viability at 28.5 h, 10 µM [%]": 96.1
  },
  {
    "compound": "COC(=O)c1ccccc1NC(=O)CSc1nnc(-c2ccccc2Cl)[nH]1 [CBK265966]",
    "viability at 28.5 h, 10 µM [%]": 95.4
  },
  {
    "compound": "Cc1ccnc(-n2sc3ccccc3c2=O)n1 [CBK116499]",
    "viability at 28.5 h, 10 µM [%]": 97.1
  }
]

// batch mode: one viability at 28.5 h, 10 µM value per listed entry
1. O=C(N/N=C/c1cccnc1)C1CCCN(S(=O)(=O)c2ccccc2)C1 (stereo not drawn) [CBK262712]
2. O=C(c1cccnc1)N1CCN(Cc2cccc([N+](=O)[O-])c2)CC1 [CBK263020]
3. COc1ccc(C(=O)C2=C(O)C(=O)N(Cc3cccnc3)C2c2cccc([N+](=O)[O-])c2)cc1 (stereo not drawn) [CBK264661]
4. CCC(C)Nc1nc(SCC(=O)OC)nc(N(C)C)n1 (stereo not drawn) [CBK269780]
5. CCc1nc2c(OCC3CCCCO3)cccn2c1N(C)C(=O)c1ccc2c(c1)OCO2 (stereo not drawn) [CBK147860]

A)
1: 91.5; 2: 114; 3: 99.5; 4: 95.2; 5: 82.9

Q) Endpoint output: viability at 28.5 h, 10 µM of COc1ccc([C@@]23CC[C@@H](NC(=O)Nc4ccc(Cl)nc4)C[C@@H]2N(C)CC3)cc1OC [CBK045764] . Value?
A) 91.9

###

Can you tell me viability at 28.5 h, 10 µM for the items I'm about to list?
# test.details: in vitro
# experimental.context: human, hela cells, % viability
Answers are plain numbers, in %.

Example entries begin here.
[
  {
    "compound": "Clc1ccc(CN2CCC(Oc3nccnc3OC3CCCCC3)CC2)cc1 [CBK082856T]",
    "viability at 28.5 h, 10 µM, %": 101
  },
  {
    "compound": "O=C(Cc1ccc(F)cc1)Nc1cccc(-c2noc(-c3ccc(F)cc3)n2)c1 [CBK299821]",
    "viability at 28.5 h, 10 µM, %": 89
  },
  {
    "compound": "CNc1sc(C(=O)c2ccc(OC)c(OC)c2)c(N)c1C#N [CBK270194]",
    "viability at 28.5 h, 10 µM, %": 86.1
  },
  {
    "compound": "CC(Cc1cnccn1)NC(=O)Nc1cc(N2CCOCC2)ccc1Cl (stereo not drawn) [CBK306954]",
    "viability at 28.5 h, 10 µM, %": 111
  },
  {
    "compound": "O=[N+]([O-])c1cc(C(F)(F)F)ccc1NCCNC(=S)Nc1ccc(Cl)cc1 [CBK263578]",
    "viability at 28.5 h, 10 µM, %": 92.9
  },
  {
    "compound": "CCOc1ccc(CNc2ccc(S(N)(=O)=O)cc2)cc1 [CBK267962]",
    "viability at 28.5 h, 10 µM, %": 89.3
  }
]

// input: 3 compounds below; output: viability at 28.5 h, 10 µM for each
1. COc1ccc(C(=O)Nc2c(OC)cc(F)cc2OC2CCNCC2)cc1 [CBK050294T]
2. O=C(NCCc1ccccc1)c1cc(-c2ccccc2Cl)[nH]n1 [CBK288113]
3. O=C(O)c1cc(S(=O)(=O)NCc2ccco2)c(Cl)cc1N1CCCCC1 [CBK263409]

A)
[97, 105, 108]

###

What viability at 28.5 h, 10 µM was measured for each of the following?
# test.details: in vitro
# experimental.context: human, hela cells, % viability
Numbers only, in %.

Worked examples, 6 molecules total:
[
  {
    "molecule": "Cc1ccc(-n2c3nc(=O)[nH]c(=O)c-3cc3c(Cl)cccc32)c(C)c1",
    "viability at 28.5 h, 10 µM, %": 83.3
  },
  {
    "molecule": "CC(CNS(=O)(=O)c1cc(Cl)ccc1Cl)CN(C)C (stereo not drawn)",
    "viability at 28.5 h, 10 µM, %": 108
  },
  {
    "molecule": "Cc1csc(C(Cc2ccsc2)NC(=O)c2ccnn2C)n1 (stereo not drawn)",
    "viability at 28.5 h, 10 µM, %": 104
  },
  {
    "molecule": "CCc1cccc2c1Sc1ccccc1CC2N1CCN(C)CC1 (stereo not drawn) [CBK026248G]",
    "viability at 28.5 h, 10 µM, %": 103
  },
  {
    "molecule": "CCCC(=O)c1ccc(S(=O)(=O)N2CCCN(Cc3ccc(F)cc3Cl)CC2)cc1",
    "viability at 28.5 h, 10 µM, %": 116
  },
  {
    "molecule": "CCOC(=O)c1ccsc1NC(=O)C1CC=CCC1C(=O)O (stereo not drawn)",
    "viability at 28.5 h, 10 µM, %": 97.5
  }
]

Please supply viability at 28.5 h, 10 µM for each of the following items, keeping them in order.
1. CCNC(=O)Nc1cc2cccnc2c(-c2ccsc2)n1
2. Cc1nc(C)c(C(=O)NCCN2CC(C)CC(C)C2)s1 (stereo not drawn)
3. COc1ccc(C(=O)N2CCC3(CC2)NC(=O)c2ccc(C(F)(F)F)cc2O3)cc1OC

A)
1. 106
2. 95.1
3. 102

###

# test.details: in vitro
# experimental.context: human, hela cells, % viability
Friendly reminder: viability at 28.5 h, 10 µM below 90% is satisfied, at or above is not satisfied.

Some solved entries appear below for comparison.
[
  {
    "molecule": "Cc1nn(C)cc1C(=O)NC1CCCC1",
    "answer.label": "not satisfied"
  },
  {
    "molecule": "COc1ccc(C2CCN(Cc3cccnc3)CC2)cc1",
    "answer.label": "not satisfied"
  },
  {
    "molecule": "O=C1CN(Cc2cnn(-c3ccc(F)cc3)c2)CCN1C1CCCC1",
    "answer.label": "satisfied"
  },
  {
    "molecule": "CC1CCCN(C(=O)CCn2c(C(F)F)cc3cccnc32)C1 (centres unmarked)",
    "answer.label": "not satisfied"
  },
  {
    "molecule": "CN(C)CCOC(=O)c1ccc2[nH]c3c(c2c1)CSCC3 [CBK009731C]",
    "answer.label": "not satisfied"
  }
]

Q) hey, is viability at 28.5 h, 10 µM for Cn1c(CN2CCCCC2)nc2cc(NS(=O)(=O)c3ccc(Cl)cc3)ccc21 lower than 90% or not?
A) satisfied

Q) Please indicate whether the reported viability at 28.5 h, 10 µM of COc1ccc(-c2cc3cccnc3n2CC(=O)NC(C)(C)C)cc1 is strictly below 90%.
A) not satisfied

Q) Confirm or reject: viability at 28.5 h, 10 µM of O=C(O)CCN1CCN(c2ccc(F)cc2)CC1 lies strictly below 90%
A) satisfied

Q) Hi there! Is viability at 28.5 h, 10 µM for O=S(=O)(c1ccc2ccccc2c1)N1CCN(C2CCC(c3ccccc3)CC2)CC1 (centres unmarked) below 90%, do you know?
A) not satisfied

Q) Please let me know if COc1ccc(/C(C)=N/NC(=O)CSCc2cccc(Br)c2)cc1 shows viability at 28.5 h, 10 µM below 90%.
A) satisfied

Q) Hi there! Is viability at 28.5 h, 10 µM for CCOC(=O)c1cccc(-c2ccc(OC)c(OC)c2)n1 below 90%, do you know?
A) not satisfied

Q) is_below(viability at 28.5 h, 10 µM, 90%) for CCOc1ccc2[nH]c(C(=O)NC3CCCN(C)C3)c(C)c2c1 (centres unmarked) ?
A) not satisfied

Q) Hi there! Is viability at 28.5 h, 10 µM for c1ccc(-c2nc3cc4ccccc4cc3[nH]2)nc1 below 90%, do you know?
A) satisfied

Q) Here's an entry: COc1ccc(C)cc1-n1ccc(C(=O)NCC2(C)CCCS2)n1 (centres unmarked) . Is its viability at 28.5 h, 10 µM below 90%?
A) satisfied

Q) Take the molecule Cc1nn(CC(=O)OC2CCCCC2)c(=O)c2cc3sccc3n12 and say whether its viability at 28.5 h, 10 µM is less than 90%.
A) satisfied

Q) Does the reported viability at 28.5 h, 10 µM of the following molecule sit strictly below 90%? C#CCNC(=O)c1nn(Cc2ccc(S(=O)(=O)N(C)OC)cc2)c2ccccc12
A) not satisfied

Q) Dear reviewer, please state whether Cc1nnnn1CC(=O)Nc1nn(C)c2cccc(N3CCOCC3)c12 has viability at 28.5 h, 10 µM strictly beneath 90%.
A) not satisfied

Q) Input Cc1c(C(=O)N2CCC(c3nc(C)n4ccsc34)CC2)cnn1C ; condition: viability at 28.5 h, 10 µM strictly below 90%. Does it hold?
A) not satisfied
